EXPERIMENTAL_TARGET: FQSE (SEQ ID NO:10)-specific binding sites in the rat cortex
METHOD_NOTES: Radioligand analysis with [3H] FQSE on rat cortex membranes
CONDITIONS_USED: read-out: IC50 after different incubation times: 50 min
READOUT_LABEL: IC50 (µM)

1. CN1C(=O)CN=C(c2ccccc2)c2cc(Cl)ccc21 [Diazepam] :: 52

###

EXPERIMENTAL_TARGET: FQSE (SEQ ID NO:10)-specific binding sites in the rat cortex
METHOD_NOTES: Radioligand analysis with [3H] FQSE on rat cortex membranes
CONDITIONS_USED: RT, 1 h; read-out: IC50 after different incubation times: 1 h
READOUT_LABEL: IC50 (µM)

1) CC(=O)[C@H]1CC[C@H]2[C@@H]3CC=C4C[C@@H](O)CC[C@]4(C)[C@H]3CC[C@]12C :: 77

###

EXPERIMENTAL_TARGET: FQSE (SEQ ID NO:10)-specific binding sites in the rat cortex
METHOD_NOTES: Radioligand analysis with [3H] FQSE on rat cortex membranes
CONDITIONS_USED: read-out: IC50 after different incubation times: 1 h
Method: After decapitation, the tissues were immediately frozen in liquid nitrogen and stored in a low-temperature refrigerator at −80° C. On the day of the experiment, brain tissue (cortex, about 300 mg) was homogenized in a Teflon-glass Potter homogenizer 1:25 W:V in the buffer (50 mM Tris-HCl, pH 7.4). The homogenate was centrifuged at 40,000 g for 20 min. The obtained precipitate was homogenized in a buffer (50 mM Tris-HCl; pH=7.4) and centrifuged again at 40,000 g for 20 min. […]
READOUT_LABEL: IC50 (µM)

1) CN1C(=O)CN=C(c2ccccc2)c2cc(Cl)ccc21 :: 89

###

EXPERIMENTAL_TARGET: hippocampal NMDA receptors
METHOD_NOTES: Radioligand analysis of NMDA receptors with [3H] (+) MK-801
CONDITIONS_USED: [3H] (+) MK-801, room temperature, 2 hours; read-out: IC50 of displacement curve
pIC50: −log10 of the molar value.
READOUT_LABEL: pIC50

1) C[C@]12N[C@H](Cc3ccccc31)c1ccccc12 :: 8.15

###

EXPERIMENTAL_TARGET: FQSE (SEQ ID NO:10)-specific binding sites in the rat cortex
METHOD_NOTES: Radioligand analysis with [3H] FQSE on rat cortex membranes
CONDITIONS_USED: Series 5; 25 and 50 minutes at room temperature; read-out: IC50 with respect to [3H]-FQSE binding
READOUT_LABEL: IC50

1. O=C(O)C1=CCNCC1 [Isoguvacine] :: > 100 µM

###

EXPERIMENTAL_TARGET: FQSE (SEQ ID NO:10)-specific binding sites in the rat cortex
METHOD_NOTES: Radioligand analysis with [3H] FQSE on rat cortex membranes
CONDITIONS_USED: 25 min incubation at RT; read-out: IC50 with respect to [3H]-FQSE binding
READOUT_LABEL: IC50

1) O=C(c1ccc(F)cc1)C1CCN(CCn2c(=O)[nH]c3ccccc3c2=O)CC1 [Ketanserin] :: > 100 µM

###

EXPERIMENTAL_TARGET: FQSE (SEQ ID NO:10)-specific binding sites in the rat cortex
METHOD_NOTES: Radioligand analysis with [3H] FQSE on rat cortex membranes
CONDITIONS_USED: RT, 1 h 30 min; read-out: IC50 after different incubation times: 1 h 30 min
pIC50: −log10 of the molar value.
READOUT_LABEL: pIC50

1) CC(=O)[C@H]1CC[C@H]2[C@@H]3CC=C4C[C@@H](O)CC[C@]4(C)[C@H]3CC[C@]12C [Pregnenolone] :: 4.12
